Listing of recorded kinase still bound, per cent of control by entry.
Tested on: RET (human), P07949 [V804M]
Sequence (P07949 whole entry V804M, looked up): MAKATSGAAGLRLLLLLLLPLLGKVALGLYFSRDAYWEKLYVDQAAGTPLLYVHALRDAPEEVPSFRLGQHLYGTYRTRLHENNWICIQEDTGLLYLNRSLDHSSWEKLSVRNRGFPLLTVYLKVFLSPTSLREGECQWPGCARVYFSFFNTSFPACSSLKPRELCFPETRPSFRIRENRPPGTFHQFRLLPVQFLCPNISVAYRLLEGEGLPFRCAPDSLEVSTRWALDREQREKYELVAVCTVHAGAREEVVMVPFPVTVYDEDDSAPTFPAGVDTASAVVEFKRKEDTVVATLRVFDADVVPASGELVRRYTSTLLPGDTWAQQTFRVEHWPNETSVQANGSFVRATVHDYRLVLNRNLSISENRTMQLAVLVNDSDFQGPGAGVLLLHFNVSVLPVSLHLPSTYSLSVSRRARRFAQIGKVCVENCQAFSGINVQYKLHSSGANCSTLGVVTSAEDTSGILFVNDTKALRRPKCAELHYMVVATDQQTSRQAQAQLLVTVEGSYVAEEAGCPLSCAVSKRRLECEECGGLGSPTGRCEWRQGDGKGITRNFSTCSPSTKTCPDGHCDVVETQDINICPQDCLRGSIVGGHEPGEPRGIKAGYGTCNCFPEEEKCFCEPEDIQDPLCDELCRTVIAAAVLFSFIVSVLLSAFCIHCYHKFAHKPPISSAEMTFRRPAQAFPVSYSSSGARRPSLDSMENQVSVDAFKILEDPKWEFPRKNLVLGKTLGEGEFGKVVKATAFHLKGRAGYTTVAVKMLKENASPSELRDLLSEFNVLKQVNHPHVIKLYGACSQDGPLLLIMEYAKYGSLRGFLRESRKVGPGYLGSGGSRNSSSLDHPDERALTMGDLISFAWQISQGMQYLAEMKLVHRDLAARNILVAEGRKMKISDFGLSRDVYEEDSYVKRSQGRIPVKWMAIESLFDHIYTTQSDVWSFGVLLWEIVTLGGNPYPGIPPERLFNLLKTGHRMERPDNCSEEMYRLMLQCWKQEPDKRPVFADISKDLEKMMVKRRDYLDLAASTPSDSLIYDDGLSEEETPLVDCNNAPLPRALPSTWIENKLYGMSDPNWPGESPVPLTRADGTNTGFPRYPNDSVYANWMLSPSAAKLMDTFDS
Test method notes: KINOMEscan competition binding
Test settings: compound 10.0 µM

Molecule: COc1cc2c(Nc3ccc(NC(=O)c4ccccc4)cc3)ncnc2cc1OCCCN1CCOCC1
kinase still bound, per cent of control (%): 12
--
Molecule: NC(=O)Nc1cc(-c2cccc(F)c2)sc1C(=O)N[C@@H]1CCCNC1
kinase still bound, per cent of control (%): 0
--
Molecule: COc1cc(C)c(Sc2cnc(NC(=O)c3ccc(CNC(C)C(C)C)cc3)s2)cc1C(=O)N1CCN(C(C)=O)CC1 (centres undefined)
kinase still bound, per cent of control (%): 100
--
Molecule: COc1cc(C(=O)N2CCC(N3CCN(C)CC3)CC2)ccc1Nc1ncc2c(n1)N(C)c1ccccc1C(=O)N2C
kinase still bound, per cent of control (%): 80
--
Molecule: C=CC(=O)Nc1ccc(C(=O)c2sc(Nc3ccc(N4CCN(C)CC4)cc3OC)nc2N)cc1
kinase still bound, per cent of control (%): 100
--
Molecule: COc1cc(C(=O)NC2CCN(C)CC2)ccc1Nc1ncc2c(n1)N(C1CCCC1)CCC(=O)N2C(C)C
kinase still bound, per cent of control (%): 100
--
Molecule: CCOc1cc(N2CCC(O)CC2)ccc1Nc1ncc2c(n1)N(C)c1ccccc1C(=O)N2C
kinase still bound, per cent of control (%): 100
--
Molecule: C=CC(=O)Nc1cccc(Nc2nc(N[C@H]3CC[C@H](N(C)C)CC3)nc3c2ncn3C(C)C)c1
kinase still bound, per cent of control (%): 71
--
Molecule: CCc1nc(-c2cccc(C)c2)c(-c2ccnc(NC(=O)c3ccccc3)c2)s1
kinase still bound, per cent of control (%): 94
